Listed next: entries and their corresponding IC50.
Target: human KDR protein in HEK-293 cells (Homo sapiens (Human), UniProt P35968)
Sequence (P35968 20-1356): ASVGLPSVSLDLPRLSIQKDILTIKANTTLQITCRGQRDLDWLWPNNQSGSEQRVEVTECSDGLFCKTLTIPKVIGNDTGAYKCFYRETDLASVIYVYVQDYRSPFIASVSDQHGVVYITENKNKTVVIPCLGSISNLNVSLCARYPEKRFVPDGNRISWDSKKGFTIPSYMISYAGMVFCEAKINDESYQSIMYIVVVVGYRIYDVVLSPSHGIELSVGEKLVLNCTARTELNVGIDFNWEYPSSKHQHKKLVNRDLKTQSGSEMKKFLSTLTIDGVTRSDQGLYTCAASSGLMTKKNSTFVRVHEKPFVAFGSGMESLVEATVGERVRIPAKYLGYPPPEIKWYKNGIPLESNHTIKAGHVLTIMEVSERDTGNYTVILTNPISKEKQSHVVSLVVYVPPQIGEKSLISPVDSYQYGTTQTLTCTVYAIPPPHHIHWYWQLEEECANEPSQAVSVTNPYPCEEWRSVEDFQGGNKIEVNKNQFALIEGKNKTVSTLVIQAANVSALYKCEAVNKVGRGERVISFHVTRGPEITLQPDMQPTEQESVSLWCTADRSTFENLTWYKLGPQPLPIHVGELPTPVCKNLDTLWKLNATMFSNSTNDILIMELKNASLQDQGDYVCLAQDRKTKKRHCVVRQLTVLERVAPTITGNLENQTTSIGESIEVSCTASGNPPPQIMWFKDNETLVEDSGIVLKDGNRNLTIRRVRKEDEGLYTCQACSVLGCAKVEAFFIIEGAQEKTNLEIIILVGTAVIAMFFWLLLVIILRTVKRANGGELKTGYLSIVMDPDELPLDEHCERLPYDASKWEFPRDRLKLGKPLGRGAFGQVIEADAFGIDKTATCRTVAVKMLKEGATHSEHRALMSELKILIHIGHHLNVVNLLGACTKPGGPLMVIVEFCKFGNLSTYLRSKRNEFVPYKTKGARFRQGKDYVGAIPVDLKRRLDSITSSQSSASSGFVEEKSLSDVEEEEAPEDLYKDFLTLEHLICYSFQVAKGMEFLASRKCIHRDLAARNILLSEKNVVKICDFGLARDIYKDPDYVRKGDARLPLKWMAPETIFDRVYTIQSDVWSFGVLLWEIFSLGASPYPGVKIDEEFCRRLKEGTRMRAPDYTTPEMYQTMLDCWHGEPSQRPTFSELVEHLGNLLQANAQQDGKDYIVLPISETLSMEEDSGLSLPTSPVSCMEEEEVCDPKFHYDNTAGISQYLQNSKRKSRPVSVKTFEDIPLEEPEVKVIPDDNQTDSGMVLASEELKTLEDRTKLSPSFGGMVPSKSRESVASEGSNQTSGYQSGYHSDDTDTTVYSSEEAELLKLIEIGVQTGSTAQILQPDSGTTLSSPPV
Assay: KDR Cell Assay (phospho-KDR in HEK-293 cells expressing inducible KDR)
Format: cell-based
Settings: pKDR Cell HEK 10% FBS IC50, HEK-293 cells expressing inducible KDR, VEGF stimulated, 10% FBS
Your answer is read as nM, so omit the unit and give the number.

Cn1cc(-c2cc(-c3ccc(N4CCN(CC(O)c5c(F)cccc5F)CC4)nc3)c3c(C#N)cnn3c2)cn1 (stereo not drawn) [Example 154] = 155
Cn1cc(-c2cc(-c3ccc(N4CCN(C(=O)c5ccccc5N5CCOCC5)CC4)nc3)c3c(C#N)cnn3c2)cn1 [Example 358, bis(2,2,2-trifluoroacetate)] = 161

# context switch: different compound, same IC50
Ask: Look at this compound and give its reported IC50. CC(C)O[C@@H]1CCN(C(=O)N2CCN(c3ccc(-c4cc(-c5cnn(C)c5)cn5ncc(C#N)c45)cn3)CC2)C1 [Example 107]
Reply: 893

---

Target: human KDR protein in HEK-293 cells (Homo sapiens (Human))
Test: KDR Cell Assay (phospho-KDR in HEK-293 cells expressing inducible KDR)
Assay type: cell-based
Conditions: pKDR Cell HEK 10% FBS IC50, HEK-293 cells expressing inducible KDR, VEGF stimulated, 10% FBS
observedProperty: IC50 (nM)
Your answer is read as nM, so omit the unit and give the number.

Cn1cc(-c2cc(-c3ccc(N4CCN(C(=O)N5CCC(C)(C)C5)CC4)nc3)c3c(C#N)cnn3c2)cn1 [Example 118] = 606
CCN(CC)C(C(=O)N1CCN(c2ccc(-c3cc(-c4cnn(C)c4)cn4ncc(C#N)c34)cn2)CC1)c1ccccc1 (centres unmarked) [Example 364, bis(2,2,2-trifluoroacetate)] = 4360
Cn1cc(-c2cc(-c3ccc(N4CCN(C(=O)N5CCCC5(C)C)CC4)nc3)c3c(C#N)cnn3c2)cn1 [Example 124] = 1860
CC(C)OC(=O)N1CC2(CCN(c3ccc(-c4cc(-c5cnn(C)c5)cn5ncc(C#N)c45)cn3)CC2)C1 [Example 222] = 257
Cn1cc(-c2cc(-c3ccc(N4CCN(C(=O)Cc5ccc(C#N)cc5)CC4)nc3)c3c(C#N)cnn3c2)cn1 [Example 365, 2,2,2-trifluoroacetate] = 597

# context switch: different molecule, same IC50
Ask: Look at this molecule and give its reported IC50. Cn1cc(-c2cc(-c3ccc(N4CCN(CC(=O)N5CCCC5)CC4)nc3)c3c(C#N)cnn3c2)cn1 [Example 145, 2,2,2-trifluoroacetate]
Reply: 682

---

Molecular target: human KDR protein in HEK-293 cells (Homo sapiens (Human))
Assay: KDR Cell Assay (phospho-KDR in HEK-293 cells expressing inducible KDR)
Type: cell-based
Conditions: pKDR Cell HEK 10% FBS IC50, HEK-293 cells expressing inducible KDR, VEGF stimulated
Structures can show the parent of a compound that is named as a salt.
Listed next: entries and their corresponding log10 IC50.
The base-10 logarithm of IC50, taken with IC50 in nM, is what appears here.

The following compounds have reported results that may help.
COc1ccccc1N(C)C(=O)N1CCN(c2ccc(-c3cc(-c4cnn(C)c4)cn4ncc(C#N)c34)cn2)CC1 [Example 382] = 3.23
Cn1cc(-c2cc(-c3ccc(N4CCC(Cc5ccccc5)CC4)nc3)c3c(C#N)cnn3c2)cn1 [Example 535] = 2.57
Cn1cc(-c2cc(-c3ccc(N4CCC5(CCCN5)CC4)nc3)c3c(C#N)cnn3c2)cn1 [Example 541, dihydrochloride] = 2.73
Cn1cc(-c2cc(-c3ccc(N4C5CCC4CN(Cc4ccccc4)C5)nc3)c3c(C#N)cnn3c2)cn1 [Example 491] = 2.08
C[C@@H](c1ccccc1)N1CCN(c2ccc(-c3cc(-c4cnn(C)c4)cn4ncc(C#N)c34)cn2)CC1 [Example 422, dihydrochloride] = 2.97

Ask: Look at this compound and give its reported log10 IC50. Cc1cc(C)nc(CN2CCN(c3ccc(-c4cc(-c5cnn(C)c5)cn5ncc(C#N)c45)cn3)CC2)n1 [Example 401]
Reply: 2.84

Hey, just so you know, these numbers are from patent US10023570B2.
